Documented HDAC6 activity raw data (signal) across a set of molecules
# assayed system: HDAC6 (Homo sapiens, UniProt Q9UBN7)
# Construct: purchased Reaction Biology Corporation (assay run by the CRO)
# Sequence (Q9UBN7 1-1215): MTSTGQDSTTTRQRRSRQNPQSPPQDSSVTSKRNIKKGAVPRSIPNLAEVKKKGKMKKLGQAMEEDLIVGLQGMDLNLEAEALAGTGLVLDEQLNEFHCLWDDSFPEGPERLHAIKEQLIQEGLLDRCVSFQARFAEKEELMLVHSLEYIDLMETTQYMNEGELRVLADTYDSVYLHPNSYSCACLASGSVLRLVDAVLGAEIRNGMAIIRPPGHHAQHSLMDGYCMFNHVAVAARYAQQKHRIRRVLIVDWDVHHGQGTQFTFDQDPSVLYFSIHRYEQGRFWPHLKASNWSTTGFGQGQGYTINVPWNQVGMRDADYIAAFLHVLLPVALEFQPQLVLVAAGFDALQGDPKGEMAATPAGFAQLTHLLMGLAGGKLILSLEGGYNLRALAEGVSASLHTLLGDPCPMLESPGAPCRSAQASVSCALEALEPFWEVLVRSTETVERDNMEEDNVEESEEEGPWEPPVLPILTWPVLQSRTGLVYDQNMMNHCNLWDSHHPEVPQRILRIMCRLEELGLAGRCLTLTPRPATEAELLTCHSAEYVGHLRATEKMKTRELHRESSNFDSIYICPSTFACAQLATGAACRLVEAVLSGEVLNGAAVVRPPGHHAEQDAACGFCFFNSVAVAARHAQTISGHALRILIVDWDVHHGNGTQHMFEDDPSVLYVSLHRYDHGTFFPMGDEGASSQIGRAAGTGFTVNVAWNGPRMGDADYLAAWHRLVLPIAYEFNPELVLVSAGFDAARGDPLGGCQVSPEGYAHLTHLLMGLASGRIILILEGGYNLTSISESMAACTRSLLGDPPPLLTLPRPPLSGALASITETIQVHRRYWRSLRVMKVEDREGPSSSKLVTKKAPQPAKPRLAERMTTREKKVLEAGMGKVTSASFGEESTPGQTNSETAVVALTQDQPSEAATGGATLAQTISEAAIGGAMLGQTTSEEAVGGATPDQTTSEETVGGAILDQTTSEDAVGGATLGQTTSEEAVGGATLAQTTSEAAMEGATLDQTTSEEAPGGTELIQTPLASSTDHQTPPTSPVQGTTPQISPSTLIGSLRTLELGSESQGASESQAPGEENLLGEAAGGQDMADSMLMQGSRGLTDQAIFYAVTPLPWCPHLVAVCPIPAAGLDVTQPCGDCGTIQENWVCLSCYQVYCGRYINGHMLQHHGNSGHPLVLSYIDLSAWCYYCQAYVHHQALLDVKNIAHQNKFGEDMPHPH
# assay method text: HDAC6 inhibition, full IC50 measurement (Reaction Biology; fluorogenic p53 peptide RHKK(Ac)AMC)
# Assay type: biochemical
# protocol conditions: Conc. 1.23E-07 M, t1
Peptide text beside a SMILES is read from it.

{"molecule": "N=C(N)NCCC[C@@H]1NC(=O)[C@@H](CCCNC(=N)N)NC(=O)[C@H]2CCCN2C(=O)[C@@H](Cc2c[nH]cn2)NC(=O)[C@H](Cc2ccc(O)cc2)NC(=O)[C@H](CCCCCS)NC(=O)[C@H](CCc2ccccc2)NC(=O)[C@@H](CO)NC(=O)[C@H](CC(=O)O)NC1=O [des3.3.1, SHA-Tyr-dHis-dPro-dArg-Arg-Asp-dSer-C27] (HELM PEPTIDE1{[O=C([C@H](CCCCCS)N[*:1])[*:2]].Y.[dH].[dP].[dR].R.D.[dS].[O=C([C@H](CCc1ccccc1)N[*:1])[*:2]]}$PEPTIDE1,PEPTIDE1,1:R1-9:R2$$$V2.0)", "recorded metric": "HDAC6 activity raw data (signal)", "recorded result": 31520}

// sample CCCC[C@H]1NC(=O)[C@H](Cc2ccccc2)NC(=O)[C@H](CCCCCS)NC(=O)[C@@H](CCCNC(=N)N)NC(=O)[C@H](C)NC(=O)[C@@H](CO)NC(=O)[C@@H](C)NC(=O)[C@H](CCCCN)NC1=O [des4.3.1.3, SHA-Phe-dNle-Lys-dAla-dSer-Ala-dArg] (HELM PEPTIDE1{A.[dR].[O=C([C@H](CCCCCS)N[*:1])[*:2]].F.[CCCC[C@@H](N[*:1])C(=O)[*:2]].K.[dA].[dS]}$PEPTIDE1,PEPTIDE1,1:R1-8:R2$$$V2.0) , its HDAC6 activity raw data (signal) was 145819
